# assayNotes: gradient 5% acetonitrile 3 min, to 50% in 2 min, to 85% in 15 min, held 3 min, 100 µL/min
# conditionDetails: column: Zorbax Extend-C18 2.1 x 50 mm; eluents: water / acetonitrile, 0.1% formic acid
Output: class label from RP-LC retention time. Mapping: class 1: < 600 s; class 2: ≥ 600 s and < 800 s; class 3: ≥ 800 s

molecule | classAssignment
COc1ccc(OC)c(NC(=O)N2CCC(N3CCN(Cc4ccc(C)cc4)C(=O)C3=O)CC2)c1 | class 2
CCCc1cc(=O)n(CC(=O)Nc2ncccc2C)cn1 | class 1
CCN(CC)CCNC(=O)Cn1nc(-n2cccc2)c2c(C)cc(C)nc21 | class 2
CC(=O)OCCn1c([N+](=O)[O-])cnc1/C=[N+](\[O-])C1CCCCC1 | class 2
COc1ccccc1-c1noc(C2CCCN2C(=O)COc2ccccc2C)n1 (centres undefined) | class 3
Cc1noc(C)c1-c1ccc(S(=O)(=O)Nc2cccc(C#N)c2)cc1 | class 3

###

# assayNotes: gradient 5% acetonitrile 3 min, to 50% in 2 min, to 85% in 15 min, held 3 min, 100 µL/min
# conditionDetails: column: Zorbax Extend-C18 2.1 x 50 mm; eluents: water / acetonitrile, 0.1% formic acid
One threshold, 800 s, splits the recorded RP-LC retention time values: lower ones are rule met, equal or higher ones are rule not met.

molecule | classAssignment
O=C(C1=NNc2ccccc2S1(=O)=O)N1CCCCCC1 | rule met
O=c1nc(Oc2ccccc2)nc2ncccn12 | rule met
CN1c2cc(C(=O)NC3CCCC3)ccc2C(=O)N2CCCCC21 (stereo not given) | rule met
CCOC(=O)COc1cc(-c2ccccc2)nc2ccc(NC(=O)C3CC3)cc12 | rule met
CC(C)(C)c1cc(N)n(C2CCS(=O)(=O)C2)n1 (stereo not given) | rule met
CC(C)NC(=O)Cn1cc(-c2ccccc2)c2ncnc(N3CCOCC3)c21 | rule met
COc1ccc(C2(C(=O)N3CCCC3c3nc(-c4ccccc4Cl)no3)CC2)cc1 (stereo not given) | rule not met
O=C(CN1C(=O)CC(c2cccs2)=Nc2ccccc21)Nc1ccc(F)cc1F | rule not met
CCOC(=O)C1=C(CN2CCC(c3ccccc3)C2)NC(=O)NC1c1ccc(F)cc1 (stereo not given) | rule met
COc1ccccc1-c1nc(C2CC(=O)N(c3ccccc3)C2)no1 (stereo not given) | rule not met
CCOCCOC(=O)C1=C(C)NC2=C(C(=O)CCC2)C1c1cccc(OC)c1OC (stereo not given) | rule met
O=C(c1ccc([N+](=O)[O-])o1)N1CCN(Cc2nnnn2-c2ccc(F)cc2)CC1 | rule met
CCCNC(=O)C1CCCN(c2nc3ncn(CC(=O)Nc4cc(F)ccc4F)c(=O)c3s2)C1 (stereo not given) | rule met
COc1ccc(N2CCN(CCNC(=O)C3CCCN(c4cc(=O)n(C)c(=O)n4C)C3)CC2)cc1 (stereo not given) | rule met
CCNC(=O)c1sc(Nc2ccc(Cl)cn2)nc1C | rule met
Cc1cnc(C2CCC2)n1CCNS(=O)(=O)c1ccccc1 | rule met

###

# assayNotes: gradient 5% acetonitrile 3 min, to 50% in 2 min, to 85% in 15 min, held 3 min, 100 µL/min
# conditionDetails: column: Zorbax Extend-C18 2.1 x 50 mm; eluents: water / acetonitrile, 0.1% formic acid

smilesStr | RP-LC retention time [s]
COc1ccc(NC(=O)c2cnc(-c3ccc(OC)cc3)nc2-c2ccncc2)cc1 | 829
Cc1ccc(-c2nc(-c3ccc4nncn4c3)no2)cc1 | 870
COCCn1ncc(N2CCC(NC(=O)C(C)(C)C)CC2)cc1=O | 607
O=C(NCc1cc(F)cc(F)c1)c1ccc2c(c1)ncn2CCN1CCCC1 | 594
CCCn1cc(C2=CCN(S(=O)(=O)Cc3ccc(Cl)cc3)CC2)c2cccnc21 | 1100

###

# RP-LC retention time per entry
# assayNotes: gradient 5% acetonitrile 3 min, to 50% in 2 min, to 85% in 15 min, held 3 min, 100 µL/min
# conditionDetails: column: Zorbax Extend-C18 2.1 x 50 mm; eluents: water / acetonitrile, 0.1% formic acid

molecule | RP-LC retention time, s
Cc1cc(C)c2c(n1)sc1c(=O)n(CC(=O)Nc3ccc(F)c(F)c3)c(C)nc12 | 910
Cn1nc(-c2nc(C3CC3)no2)c2c1CCN(C(=O)c1ccc(Br)cc1)C2 | 893
COc1ccc(N2CCN(C(=O)Cn3ccc4ccc(-c5nnc(C)o5)cc43)CC2)cc1 | 753
COc1ccc(NC(=O)c2cc(C(F)(F)F)n(C)n2)c(OC)c1 | 998
COC[C@@H]1CN(c2cnccn2)C[C@H]1C(=O)NC(C)C | 572
CS(=O)(=O)c1ccc(-c2cccc(NC(=O)Cc3cccs3)c2)nn1 | 707
O=C(Nc1ccccc1)[C@@H]1OCC(=O)N(C2CC2)[C@H]1c1ccccc1 | 775
c1cnc(-c2n[nH]c(C3CCN(Cc4ccsc4)CC3)n2)cn1 | 559
COc1ccc(-c2ncc3c(n2)CCN(C(=O)c2ccc(Br)o2)C3)cc1 | 946
COc1ccc(Cl)cc1NC(=O)c1cc(C)n2nc(-c3ccco3)cc2n1 | 1300
Cc1cc(=O)n(CC(=O)NCCc2ccc(Cl)cc2)c(N2CCOCC2)n1 | 701
CCCCCc1nnc(NC(=O)C2CC(=O)N(CCc3c[nH]c4ccc(C)cc34)C2)s1 (centres undefined) | 873
COc1ccc(Cc2cnc(NC(=O)C3COc4ccccc4C3)s2)cc1 (centres undefined) | 952
CCN1C(=O)C2CC3(CCN(Cc4ccc5cc[nH]c5c4)CC3)CN2C1=O (centres undefined) | 621
Cn1ccc(C(=O)N2CCCC2c2ccc(Cl)cc2)n1 (centres undefined) | 824
Cc1c(Cl)cccc1NC(=O)/C=C/c1ccccc1 | 947
CC1=C(c2ccc(C(C)C)cc2)S(=O)(=O)N=C1N1CCC(NC(=O)c2ccoc2)CC1 | 769
CCc1ccc(C(=O)Nc2ccc3c(c2)Sc2ncccc2C(=O)N3CC)cc1 | 936
Cc1ccsc1C(=O)NCC1Cn2cccc2C(=O)N1CC(C)C (centres undefined) | 783
O=C(CCC1CCCN(c2cc(NC3CC3)ncn2)C1)NCCc1ccncc1 (centres undefined) | 564
CCN(C(=O)Cn1c(C(C)NC(=O)c2ccco2)nc2ccccc21)c1ccccc1 (centres undefined) | 704
CCc1ccc(-c2noc(CN3C(=O)C(C)Oc4ccccc43)n2)cc1 (centres undefined) | 1160
CCN(CC)c1nc2cc(C(=O)N3CCN(c4ccccn4)CC3)ccc2c(=O)n1-c1ccccc1 | 693
CCC(C)NC(=O)N1CCN(Cc2nc3cc(C(=O)N4CCCC4)ccc3n2C)CC1 (centres undefined) | 581
Cc1ccc(Cn2cc(CCC(=O)N3CCC(C(N)=O)CC3)c3ccccc32)cc1 | 813
Cc1ccc2nc(CN3CCN(C(=O)NCc4ccc(F)cc4)CC3)oc2c1 | 690
COc1cc(-c2nc3ncccn3c2NC2CCCCC2)cc(OC)c1OC | 724
COc1ccccc1NC(=O)C(C)C1CCN(C(=O)Nc2ccc(Cl)cc2)CC1 (centres undefined) | 938
O=C(Cn1cnc2c(-c3ccc(Cl)cc3)csc2c1=O)N1CCCC1 | 838
Cc1ccc(CNC(=O)C2CC(=O)N(c3ccc4c(c3)CCN4C(=O)C3CC3)C2)cc1 (centres undefined) | 756
COc1ccc(NC(=O)c2[nH]c3cc(C)sc3c2CN2CCOCC2)cc1 | 655
O=C(CN1C(=O)C2CCCCN2c2ccc(S(=O)(=O)N3CCCCC3)cc21)NCc1ccccc1 (centres undefined) | 988
Cc1ccc(C(=O)NCCn2c(=O)n(Cc3ccccc3)c3cccnc32)s1 | 805
Clc1ccccc1C1Cn2cnc(-c3nc(-c4ccncc4)no3)c2CO1 (centres undefined) | 915
CC1CCc2[nH]nc(C(=O)NC3CC3)c2C1 (centres undefined) | 683
Cc1ccc(=O)n(CCNC(=O)C2CC(=O)N(c3ccc(C)c(C)c3)C2)n1 (centres undefined) | 615
CCCS(=O)(=O)NCCS(=O)(=O)N1CCN(c2cccc(Cl)c2)CC1 | 867
O=c1c2cnc3nc(-c4ccccc4)nn3c2ccn1CCc1c[nH]c2ccccc12 | 925
CC(=O)N[C@@H]1CN(C(=O)c2ccc3ncccc3c2)C[C@H]1CO | 536

###

# assayNotes: gradient 5% acetonitrile 3 min, to 50% in 2 min, to 85% in 15 min, held 3 min, 100 µL/min
# conditionDetails: column: Zorbax Extend-C18 2.1 x 50 mm; eluents: water / acetonitrile, 0.1% formic acid
# RP-LC retention time per entry

molecule | RP-LC retention time [s]
O=C1N(c2cccc(F)c2)C(c2ccccc2)C12CCNCC2 (centres undefined) | 669
O=C(c1ccc(-c2ccsc2)nc1)N1CCN(c2ccccc2)CC1 | 909
Cc1cc(C)c2c(=O)n(Cc3nc(-c4ccccc4)oc3C)c(=O)n(Cc3ccco3)c2n1 | 1380
COc1ccc(C(=O)N2CCC3(CC2)NC(=O)c2cc(F)ccc2N3C)c(OC)c1 | 734
COc1cc(-c2nc(-c3ccc4c(c3)oc(=O)n4C(C)C)no2)cc(OC)c1OC | 1110
CCOc1ccc(NC(=O)c2sc(N3CCCC3=O)nc2CC)cc1 | 875
COc1ccc2c(=O)c(Oc3ccc(C(=O)NC4CCS(=O)(=O)C4)cc3)coc2c1 (centres undefined) | 687
Cc1cc(N2CCCC2)n2nc(-c3ccccc3C)nc2n1 | 729
Cc1cccn2cc(-c3ccc(NS(=O)(=O)c4ccc(Br)cc4)cc3)nc12 | 674
